Test system: Human immunodeficiency virus 2
procedure_text: Effective concentration of compound to inhibit human immunodeficiency virus HIV-2 multiplication in MT-4 infected cells
Type: functional, organism-based
Listing: EC50 of selected compounds
quantity_kind: EC50 (µM)

smiles_structure=Cc1cn([C@H]2C=C[C@@H](CO)O2)c(=O)[nH]c1=O experimental_target="Human immunodeficiency virus 2" measurement_units=µM comparator== numeric_result=0.5
smiles_structure=CCc1c(Cc2cc(C)cc(C)c2)n(COCc2ccc(O[P@](=O)(OCCSC(=O)C(C)(C)C)OC[C@@H]3C=C[C@H](n4cc(C)c(=O)[nH]c4=O)O3)cc2)c(=O)[nH]c1=O experimental_target="Human immunodeficiency virus 2" measurement_units=µM comparator== numeric_result=4
smiles_structure=CCOCn1c(Cc2ccccc2)c(C(C)C)c(=O)[nH]c1=O experimental_target="Human immunodeficiency virus 2" measurement_units=µM comparator=> numeric_result=10
smiles_structure=CCc1c(Cc2cc(C)cc(C)c2)n(COC/C=C/c2ccc(O)cc2)c(=O)[nH]c1=O experimental_target="Human immunodeficiency virus 2" measurement_units=µM comparator=> numeric_result=10

###

Test system: Human immunodeficiency virus 1
procedure_text: Effective concentration of compound to inhibit human immunodeficiency virus HIV-1 strain N119 multiplication in thymidine-kinase-deficient CEM cells
Type: functional, organism-based
cond: Human immunodeficiency virus 1, CCRF-CEM
quantity_kind: EC50 (nM)

compound="CCOCn1c(Cc2ccccc2)c(C(C)C)c(=O)[nH]c1=O [EMIVIRINE]" quantity_kind=EC50 comparator=> numeric_result=10000
compound="Cc1cn([C@H]2C=C[C@@H](CO)O2)c(=O)[nH]c1=O [STAVUDINE]" quantity_kind=EC50 comparator=> numeric_result=10000
compound=CCc1c(Cc2cc(C)cc(C)c2)n(COC/C=C/c2ccc(O[P@](=O)(OCCSC(=O)C(C)(C)C)OC[C@@H]3C=C[C@H](n4cc(C)c(=O)[nH]c4=O)O3)cc2)c(=O)[nH]c1=O quantity_kind=EC50 comparator== numeric_result=200
compound=CCc1c(Cc2cc(C)cc(C)c2)n(COC/C=C/c2ccc(O)cc2)c(=O)[nH]c1=O quantity_kind=EC50 comparator== numeric_result=200
compound="CCOCn1c(Cc2ccccc2)c(C(C)C)c(=O)n(C(=O)c2ccc(OP(=O)(OCCSC(=O)C(C)(C)C)OCC3C=CC(n4cc(C)c(=O)[nH]c4=O)O3)cc2)c1=O (stereo not given)" quantity_kind=EC50 comparator== numeric_result=300

###

Test system: MT4
procedure_text: Cytotoxic concentration required to reduce the viability of normal uninfected MT-4 cells
Assay type: functional
cond: Homo sapiens
quantity_kind: CC50 (µM)

smiles_structure=CCOCn1c(Cc2ccccc2)c(C(C)C)c(=O)[nH]c1=O comparator=> numeric_result=100
smiles_structure=Cc1cn([C@H]2C=C[C@@H](CO)O2)c(=O)[nH]c1=O comparator=> numeric_result=100
smiles_structure=CCc1c(Cc2cc(C)cc(C)c2)n(COC/C=C/c2ccc(OC(=O)c3ccccc3)cc2)c(=O)[nH]c1=O comparator== numeric_result=35
smiles_structure=CCc1c(Cc2cc(C)cc(C)c2)n(COC/C=C/c2ccc(O)cc2)c(=O)[nH]c1=O comparator== numeric_result=35
smiles_structure=CCc1c(Cc2cc(C)cc(C)c2)n(COCc2ccc(O[P@](=O)(OCCSC(=O)C(C)(C)C)OC[C@@H]3C=C[C@H](n4cc(C)c(=O)[nH]c4=O)O3)cc2)c(=O)[nH]c1=O comparator== numeric_result=35
